B1: ELF3 (parent)
chain: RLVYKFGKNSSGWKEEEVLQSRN

# Variants of: B1
# method.notes: protein stability index of a GFP-peptide fusion (GPS, HEK-293T) (PSI 1-6); higher = more stable;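 note: lentivirally expressed fusions sorted by FACS into six bins by GFP to DsRed ratio, PSI derived from sequencing read proportions per bin multiplied by bin number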
# experimental.context: c terminus: native
Measured protein stability index determines class: low: < 2; moderate: ≥ 2 and < 3; high: ≥ 3

Field: example entries. Status: answers known.
{"mutation.notation": "K14T", "class.name": "moderate"}
{"mutation.notation": "Q20P", "class.name": "moderate"}

Qu. Where would W13T land among the classes by reported protein stability index?
Ans. high

Qu. Lab log: Y4V — assign protein stability index category
Ans. moderate

Qu. Where would K5S land among the classes by reported protein stability index?
Ans. moderate

Qu. // return the class label for N23W
Ans. moderate

Qu. Entry N9V belongs to which category?
Ans. moderate

Qu. Please report the category associated with V3N , nothing else.
Ans. high

Qu. Which category does the recorded protein stability index put R22H in?
Ans. high

Qu. State the class of the variant shown: K14S
Ans. moderate

Qu. Determine which band this variant sits in: V3E
Ans. high

Qu. Which class is correct for the following variant? S21P
Ans. high

Qu. Pick a category. Item: E17Q
Ans. moderate
